test: JC-1 mitochondrial signal, unstimulated myeloma cells – cell-based, JC-1 fluorescence, RPMI8226, 24 h, 100 nL compound, profiling panel (AID 1169); settings: JC-1 mitochondrial potential fluorescence, higher = more signal; also: test concentration not given here
Would you mind telling me the reported z-score of each entry?
API doc: respond with a numeric literal and nothing else, no unit.

Query: What value of z-score has been reported for the following compound? COc1ccc(CCNC(=O)[C@@H]2c3ccccc3C(=O)N(Cc3ccccc3)[C@H]2c2ccc(CO)cc2)cc1
Result: -0.192

Query: What value of z-score has been reported for the following compound? COCCOC(=O)N1C(=O)[C@@]2(c3cc(C#CCNC(N)=O)ccc31)[C@H](C(=O)N1CCCCCCC1)[C@H]1C(=O)O[C@H](c3ccccc3)[C@H](c3ccccc3)N1[C@@H]2c1ccc(OCCO)cc1
Result: -0.764

Query: What value of z-score has been reported for the following compound? Cc1ccc(S[C@]2(C(=O)O)CC(=O)N(Cc3ccccc3C(F)(F)F)[C@@H]2c2ccc(CO)cc2)cc1
Result: 0.171

Query: What value of z-score has been reported for the following compound? CC(C)C(CO)N1C(=O)[C@@H]2[C@H]3C(=O)OCC=C[C@H]3OC23C=CCN(CCN2CCOCC2)C(=O)[C@@H]13 (some centres not stated)
Result: 0.237

Query: What value of z-score has been reported for the following compound? COCCOC(=O)N1C(=O)[C@@]2(c3cc(C#CC4(O)CCCCCC4)ccc31)[C@H](C(=O)N1CCc3cc(OC)c(OC)cc3C1)[C@H]1C(=O)O[C@H](c3ccccc3)[C@H](c3ccccc3)N1[C@@H]2c1ccccc1OCCO
Result: -0.477

Query: What value of z-score has been reported for the following compound? CCCc1cc2c(n1Cc1ccc(OC)cc1)C(C)C1CN(C(=O)c3ccccc3)C(C)(C(=O)OC)C21 (configuration not stated)
Result: -0.157

Query: What value of z-score has been reported for the following compound? O=c1c2ccc(Br)cc2nc(-c2ccccc2)n1Cc1cccc(O)c1
Result: 0.385

###

experiment: inhibition of PAO1 biofilm formation – strain PAO1, LB-PBS medium, absorbance 600 nm, primary screen (AID 1176); also: test concentration not given here; conditions: P. aeruginosa PAO1 growth/biofilm, A600, 12 h; higher = more signal
Answer not met if z-score is under 0.4, and met if it is 0.4 or more.

Query: // inclusive: z-score at least 0.4? input: COCCOC(=O)N1C(=O)[C@@]2(c3cc(C#CCC(C(=O)OC)C(=O)OC)ccc31)[C@H](C(=O)N1CCCCCCC1)[C@H]1C(=O)O[C@H](c3ccccc3)[C@H](c3ccccc3)N1[C@@H]2c1ccc(O)cc1
Result: not met

Query: // inclusive: z-score at least 0.4? input: CCCCC(=C=CC[C@H](O)c1cccc(OCCO)c1)C[C@H](O)COCc1ccccc1
Result: not met

Query: // inclusive: z-score at least 0.4? input: Cc1ccc(S[C@]2(C(=O)NCC(C)C)CC(=O)N(C3CCCCC3)[C@@H]2c2ccc(CO)cc2I)cc1
Result: not met

Query: // inclusive: z-score at least 0.4? input: COc1ccc([Si](C)(C)[C@@H]2[C@@H](CC(=O)N(CCO)Cc3ccccc3)O[C@]3(C(=O)N(Cc4ccc(N5CCOC5=O)cc4)c4ccccc43)[C@H]2C)cc1
Result: met

Query: // inclusive: z-score at least 0.4? input: CC(C)=CCCC(C)=CC(O)C1C=CC2C(=O)N(c3ccccc3)C(=O)C2N1Nc1ccc([N+](=O)[O-])cc1 (centres undefined)
Result: met

Query: // inclusive: z-score at least 0.4? input: C=CC[C@]1(C(=O)NCC(O)CO)N=C(c2ccc(OCCCO)cc2)O[C@H]1c1ccccc1N=[N+]=[N-] (some centres undefined)
Result: met

Query: // inclusive: z-score at least 0.4? input: COc1ccccc1CN1C(=O)c2ccccc2[C@@H](C(=O)NCC(C)C)[C@@H]1c1ccc(CO)cc1
Result: not met

Query: // inclusive: z-score at least 0.4? input: C=CCN1C(=O)[C@@]2(O[C@@H](CCO)[C@H]([Si](C)(C)c3ccc(OC)cc3)[C@H]2C)c2cc(NC(=O)[C@H](C)O)ccc21
Result: met

Query: // inclusive: z-score at least 0.4? input: COCCOC(=O)N1C(=O)[C@@]2(c3cc(C#Cc4ccc(OC)cc4)ccc31)[C@H](C(=O)N1CCc3cc(OC)c(OC)cc3C1)[C@H]1C(=O)O[C@H](c3ccccc3)[C@H](c3ccccc3)N1[C@@H]2c1ccc(OCCO)cc1
Result: met

Query: // inclusive: z-score at least 0.4? input: COC(=O)[C@@]1(Cc2ccc(F)cc2)[C@H]2c3cc(C(=O)N4CCCC4)n(Cc4ccccc4)c3C[C@H]2CN1C(=O)c1ccccc1
Result: not met

Query: // inclusive: z-score at least 0.4? input: Cc1ccccc1C(O)C1C=CC2C(=O)N(Cc3ccccc3)C(=O)C2N1n1cnnc1 (centres undefined)
Result: met

Query: // inclusive: z-score at least 0.4? input: COc1ccc(C#Cc2ccc3c(c2)[C@]2(C(=O)N3)[C@H](c3ccc(OCCO)cc3)N3[C@H](c4ccccc4)[C@H](c4ccccc4)OC(=O)[C@H]3[C@@H]2C(=O)N2CCN(c3ncccn3)CC2)cc1
Result: met

Query: // inclusive: z-score at least 0.4? input: C=CCC(OC(C)=O)[C@@H]1[C@@H](N(Cc2cccc3ccccc23)C(=O)c2ccc(C)cc2)c2cc(OCCCO)ccc2N1C(=O)c1ccc2ccccc2c1 (some centres undefined)
Result: not met

Query: // inclusive: z-score at least 0.4? input: C=CCOC(=O)[C@@H]1[C@H]2C(=O)O[C@H](c3ccccc3)[C@H](c3ccccc3)N2[C@H](c2ccc(OCCOC(=O)[C@@H]3C[C@@H]4C(=O)N[C@@H](CCCCNC(C)=O)C(=O)N4[C@@H]3c3ccc(O)cc3)cc2)[C@@]12C(=O)Nc1ccc(I)cc12
Result: met

Query: // inclusive: z-score at least 0.4? input: C=CCOC(=O)[C@@H]1[C@H]2C(=O)O[C@H](c3ccccc3)[C@H](c3ccccc3)N2[C@H](c2ccc(OCCOC(=O)[C@H]3C[C@H]4C(=O)N[C@@H](Cc5ccccc5)C(=O)N4[C@H]3c3cccc(OCCO)c3)cc2)[C@@]12C(=O)Nc1ccc(I)cc12
Result: not met

Query: // inclusive: z-score at least 0.4? input: O=C1O[C@@H](c2ccccc2)[C@@H](c2ccccc2)N2[C@@H](c3ccc(O)cc3)[C@]3(C(=O)Nc4ccc(C#CC5(O)CCCCCC5)cc43)[C@@H](C(=O)N3CCN(c4ncccn4)CC3)[C@H]12
Result: not met

Query: // inclusive: z-score at least 0.4? input: C=CCC(OC(C)=O)[C@@H]1[C@@H](N(Cc2ccc(-c3ccccc3)cc2)C(=O)Cc2ccc(OC)cc2)c2cc(OCCCO)ccc2N1C(=O)c1ccc(-c2ccccc2)cc1 (some centres undefined)
Result: not met

Query: // inclusive: z-score at least 0.4? input: NC(=O)NCC#Cc1ccc2c(c1)[C@]1(C(=O)N2)[C@H](c2ccc(O)cc2)N2[C@H](c3ccccc3)[C@H](c3ccccc3)OC(=O)[C@H]2[C@@H]1C(N)=O
Result: not met

Query: // inclusive: z-score at least 0.4? input: CC(C)(C)OC(=O)CC[C@@]1(C(=O)N2CCCCC2)N=C(c2ccc(OCCCO)cc2)O[C@@H]1c1ccccc1N=[N+]=[N-]
Result: not met

Query: // inclusive: z-score at least 0.4? input: CCCC=C(CCC)[C@@H](NS(=O)(=O)c1cccc2cccnc12)c1ccc(C(=O)OC)cc1
Result: not met

Query: // inclusive: z-score at least 0.4? input: CCCCCCC#C[Si](O[C@H](c1ccccc1)c1cn(Cc2cccc(Cl)c2)nn1)(C(C)C)C(C)C
Result: not met

Query: // inclusive: z-score at least 0.4? input: O=C1O[C@H](c2ccccc2)[C@H](c2ccccc2)N2[C@H]1[C@@H](C(=O)NC[C@H](O)c1ccccc1)[C@]1(C(=O)Nc3ccccc31)[C@H]2c1ccccc1OCCO
Result: met

Query: // inclusive: z-score at least 0.4? input: COC(=O)[C@@]1(Cc2ccc(F)cc2)[C@H]2c3cc(C(=O)N(C)C)n(Cc4ccc(C)c(F)c4F)c3C[C@H]2CN1C(=O)c1ccccc1
Result: not met
